Data origin: patent US20200079833A1

- subjectOfTest: GLP-1 receptor (GLP-1R), primary cAMP assay cell line (human, UniProt P43220 24-463)
- procedureSummary: cell-based or functional assay
Starred links: 1 amine or outer side, 2 acyl side, 3 side chain; linkers in the order of their positions; H or OH if unused. Non-standard residues stand in square brackets, D forms with d. Groups on a side chain read outwards from the residue. Primed or numbered codes have the meaning given here. No end group written: not given here. *: point of attachment. γGlu = O=C(O)[C@H](CCC(=O)[*:2])N[*:1]; αMeF = C[C@](N)(Cc1ccccc1)C(=O)O; αMeK = C[C@](N)(CCCCN)C(=O)O; Lauroyl = CCCCCCCCCCCC(=O)*; αMeS = C[C@](N)(CO)C(=O)O; PEG2′ = not defined here; Aib = CC(C)(N)C(=O)O
Please provide measured cAMP Primary assay EC50, n1 for the entries that follow.
Value expressed in nM; do not type the unit.

Request: Supply reported cAMP Primary assay EC50, n1 belonging to this binder: H[Aib]EGS[αMeF]TSDK([PEG2′-PEG2′-γGlu-Lauroyl])SSYLEK([PEG2′-PEG2′-γGlu-Lauroyl])EAA[αMeK]EFIAK([PEG2′-PEG2′-γGlu-Lauroyl])VVEGG-NH2 [SEQ ID NO: 455]
Result: 0.0548

Request: Supply reported cAMP Primary assay EC50, n1 belonging to this binder: H[Aib]EGS[αMeF]TSDV[αMeS]SK([PEG2′-PEG2′-γGlu-Lauroyl])LEGK([PEG2′-PEG2′-γGlu-Lauroyl])AA[αMeK]EFIAK([PEG2′-PEG2′-γGlu-Lauroyl])VVEGG-NH2 [SEQ ID NO: 464]
Result: 0.0254

Request: Supply reported cAMP Primary assay EC50, n1 belonging to this binder: H[Aib]EGS[αMeF]TSDV[αMeS]SYK([PEG2′-PEG2′-γGlu-Lauroyl])EGEK([PEG2′-PEG2′-γGlu-Lauroyl])A[αMeK]EFIK([PEG2′-PEG2′-γGlu-Lauroyl])FVVEGG-NH2 [SEQ ID NO: 453]
Result: 0.0629

Request: Supply reported cAMP Primary assay EC50, n1 belonging to this binder: H[Aib]EGS[αMeF]TSDV[αMeS]SK([PEG2′-PEG2′-γGlu-Lauroyl])LEGEK([PEG2′-PEG2′-γGlu-Lauroyl])A[αMeK]EFIK([PEG2′-PEG2′-γGlu-Lauroyl])FVVEGG-NH2 [SEQ ID NO: 449]
Result: 0.216

Request: Supply reported cAMP Primary assay EC50, n1 belonging to this binder: H[Aib]EGS[αMeF]TSDV[αMeS]SYK([PEG2′-PEG2′-γGlu-Lauroyl])EGK([PEG2′-PEG2′-γGlu-Lauroyl])AA[αMeK]EFIK([PEG2′-PEG2′-γGlu-Lauroyl])FVVEGG-NH2 [SEQ ID NO: 452]
Result: 0.0857

Request: Supply reported cAMP Primary assay EC50, n1 belonging to this binder: H[Aib]EGS[αMeF]TSDVSK([PEG2′-PEG2′-γGlu-Lauroyl])YLEK([PEG2′-PEG2′-γGlu-Lauroyl])EAA[αMeK]EFIAK([PEG2′-PEG2′-γGlu-Lauroyl])VVEGG-NH2 [SEQ ID NO: 459]
Result: 0.0895

Request: Supply reported cAMP Primary assay EC50, n1 belonging to this binder: H[Aib]EGS[αMeF]TSDK([PEG2′-PEG2′-γGlu-Lauroyl])SSYLEGEK([PEG2′-PEG2′-γGlu-Lauroyl])A[αMeK]EFIAFK([PEG2′-PEG2′-γGlu-Lauroyl])VEGG-NH2 [SEQ ID NO: 473]
Result: 0.399

Request: Supply reported cAMP Primary assay EC50, n1 belonging to this binder: H[Aib]EGS[αMeF]TSDV[αMeS]SYK([PEG2′-PEG2′-γGlu-Lauroyl])EGEK([PEG2′-PEG2′-γGlu-Lauroyl])A[αMeK]EFIAFK([PEG2′-PEG2′-γGlu-Lauroyl])VEGG-NH2 [SEQ ID NO: 485]
Result: 0.167
